- experiment.description: PET hydrolysis, aromatic products released after 48 h (umol product/mg enzyme); higher = more PET depolymerization activity
- test.conditions: substrate: aFilm; 60 °C; pH 5.5
List of PET hydrolysis values.

1) AGFEKGPDPTTASVTADRGSYDIAQVDVPKGSGTGFADGTIYYPKSTADGTFGAVAVIPGFLEPKSAIDWYGPRLASQGFVVMTLDTTSVFDTPDSRGGQLLAALDYLTSKSTVKDRIDPNRLAVVGHSMGGGGTLSAAANRPNLKAAVALAPWHVSAPLTSVKTPTMIFGSDNDFIAPDGTFAKPFYDGISNAPEKAYVRLKNAGHMAYVFPDKRIAEYTLSWLKRYVDDDTRYTQFLCPGPTNESTIAAYKSTCPM [DP093]    < 3

Now take the following sequence into account.
Incoming: Tell us which PET hydrolysis value is on record for ADNPYQRGPDPTVASVAATNGPFATAQLNVPSGNGFNGGTIYYPTDTSLGTWGAVAIVPGYTARFANEEAWMGPRLASFGFVVIGVETNSTTDWDTARGTQLLAALDYLTQKSSVRDRVDASRLAVIGHSMGGGGVVYAASQRPSLKAAIGLAPYAPSGNLSNVKVPMLIQGGQNDTVVTPSYLDGLYPTLPSSTPGAYVQYSGADHLFWTKANNIELRTQIPWLKIFLDNDTRYTQFMCPTLKDTASVAKYSAKCSLIPSAGSTTAPTTQPATSAPATTSPTTQPPSQPG [TEP083]
Outgoing: < 3
